assay: in vitro; settings: PAMPA
Description: Permeability of the compound at 150 uM by PAMPA
Everything with Papp at 150 µM lower than 20 nm/s is No; everything else, including exactly 20 nm/s, is Yes.

Study these solved cases before continuing.
O=c1n(Cc2nc3cc(Cl)ccn3c2CCCCO)c2cnccc2n1C1CC1 Yes
NC(=O)CCc1c(Cn2c(=O)n(C3CC3)c3ccncc32)nc2cc(Cl)ccn12 Yes
O=C(CCc1c(Cn2c(=O)n(C3CC3)c3ccncc32)nc2cc(Cl)ccn12)NCCO No
O=C(O)CCc1c(Cn2c(=O)n(C3CC3)c3ccncc32)nc2cc(Cl)ccn12 No
CS(=O)(=O)CCc1c(Cn2c(=O)n(C3CC3)c3ccncc32)nc2cc(Cl)ccn12 Yes

Then there is this compound:
Ask: Does the compound CCS(=O)(=O)CCc1c(Cn2c(=O)n(C3CC3)c3ccncc32)nc2cc(Cl)ccn12 have recorded Papp at 150 µM that is 20 nm/s or more?
Result: Yes

====

assay: Antiviral activity against Respiratory syncytial virus A infected in human Hep2 cells assessed as reduction of virus-induced cytopathic effect after 6 days by CCK-8 assay; format: functional, cell-based, Respiratory syncytial virus type A; details: HEp-2, 144 h
measured-metric: pEC50
The read-out pEC50 is expressed as -log10 of concentration in moles per litre.

Please review the following examples before continuing.
NC(=O)CCc1c(Cn2c(=O)n(C3CC3)c3ccncc32)nc2cc(Cl)ccn12 8.30
O=c1n(Cc2nc3cc(Cl)ccn3c2NCCN2CCOCC2)c2cnccc2n1C1CC1 7.08
CS(=O)(=O)NC(=O)CCc1c(Cn2c(=O)n(C3CC3)c3ccncc32)nc2cc(Cl)ccn12 7.34
O=c1n(Cc2cn3ccc(Cl)cc3n2)c2cnccc2n1C1CC1 5.51

Now take the following molecule into account.
Ask: For the molecule shown here, O=c1n(Cc2nc3ccccc3n2CCCCO)c2cnccc2n1C1CC1 , give the reported pEC50.
Result: 7.55

====

Reported values: IC50 for Cytochrome P450 2C9 (Homo sapiens), one per item.

CS(=O)(=O)CCc1c(Cn2c(=O)n(C3CC3)c3ccncc32)nc2cc(Cl)ccn12 > 50 µM

Now take the following compound into account.
Ask: State its IC50 on Cytochrome P450 2C9 (Homo sapiens): O=C(O)CCc1c(Cn2c(=O)n(C3CC3)c3ccncc32)nc2cc(Cl)ccn12
Sequence (P11712 whole entry): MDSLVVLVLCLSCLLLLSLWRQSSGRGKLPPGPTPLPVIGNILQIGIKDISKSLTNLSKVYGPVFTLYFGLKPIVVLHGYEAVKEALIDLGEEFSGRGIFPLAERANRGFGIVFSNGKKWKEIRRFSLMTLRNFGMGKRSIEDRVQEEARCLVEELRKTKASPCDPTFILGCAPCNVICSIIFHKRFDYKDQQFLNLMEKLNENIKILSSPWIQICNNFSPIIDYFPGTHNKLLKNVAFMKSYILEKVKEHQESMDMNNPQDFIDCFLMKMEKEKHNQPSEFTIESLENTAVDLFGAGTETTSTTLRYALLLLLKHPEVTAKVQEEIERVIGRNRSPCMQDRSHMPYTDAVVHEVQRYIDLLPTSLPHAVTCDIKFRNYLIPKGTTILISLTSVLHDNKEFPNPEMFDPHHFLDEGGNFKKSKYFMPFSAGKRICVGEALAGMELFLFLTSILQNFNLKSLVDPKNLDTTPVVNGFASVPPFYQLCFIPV
Result: > 50 µM

====

test: Antiviral activity against Respiratory syncytial virus A infected in human Hep2 cells assessed as reduction of virus-induced cytopathic effect after 6 days by CCK-8 assay; assay type: functional, cell-based, Respiratory syncytial virus type A; settings: HEp-2, 144 h
Recorded pEC50, one value per entry.
The read-out pEC50 is expressed as -log10 of concentration in moles per litre.

Ask: For the molecule shown here, O=c1n(Cc2nc3cc(Cl)ccn3c2CO)c2cnccc2n1C1CC1 , give the reported pEC50.
Result: 5.71

Ask: For the molecule shown here, O=C(O)c1c(Cn2c(=O)n(C3CC3)c3ccncc32)nc2cc(Cl)ccn12 , give the reported pEC50.
Result: 4.59

Ask: For the molecule shown here, CS(=O)(=O)CCNC(=O)c1c(Cn2c(=O)n(C3CC3)c3ccncc32)nc2cc(Cl)ccn12 , give the reported pEC50.
Result: 7.09

Ask: For the molecule shown here, O=c1n(Cc2nc3cc(Cl)ccn3c2CNCCO)c2cnccc2n1C1CC1 , give the reported pEC50.
Result: 6.17

Ask: For the molecule shown here, O=c1n(Cc2nc3cc(Cl)ccn3c2NC2CCCCC2)c2cnccc2n1C1CC1 , give the reported pEC50.
Result: 7.14

====

assay: Cytotoxicity against human Hep2 cells assessed as cell viability after 6 days by CCK-8 assay; settings: hep-2
measured-metric: CC50 at 144 h

CCS(=O)(=O)CCc1c(Cn2c(=O)n(C3CC3)c3ccncc32)nc2cc(Cl)ccn12 > 100 µM

Now take the following molecule into account.
Ask: For the molecule shown here, O=C(O)CCc1c(Cn2c(=O)n(C3CC3)c3ccncc32)nc2cc(Cl)ccn12 , give the reported CC50 at 144 h.
Result: > 100 µM

====

assay: Clearance in mouse liver microsomes at 1 uM
Recorded CLhep predicted at 1 µM, one value per entry.
Field: numeric (mL/min/kg). Do not append units.

Ask: For the compound shown here, O=C(CCc1c(Cn2c(=O)n(C3CC3)c3ccncc32)nc2cc(Cl)ccn12)NCCO , give the reported CLhep predicted at 1 µM.
Result: 47

Ask: For the compound shown here, O=C(O)CCc1c(Cn2c(=O)n(C3CC3)c3ccncc32)nc2cc(Cl)ccn12 , give the reported CLhep predicted at 1 µM.
Result: 9.1

Ask: For the compound shown here, CS(=O)(=O)CCc1c(Cn2c(=O)n(C3CC3)c3ccncc32)nc2cc(Cl)ccn12 , give the reported CLhep predicted at 1 µM.
Result: 35

Ask: For the compound shown here, NC(=O)CCc1c(Cn2c(=O)n(C3CC3)c3ccncc32)nc2cc(Cl)ccn12 , give the reported CLhep predicted at 1 µM.
Result: 59

Ask: For the compound shown here, O=c1n(Cc2nc3cc(Cl)ccn3c2CCCCO)c2cnccc2n1C1CC1 , give the reported CLhep predicted at 1 µM.
Result: 80

Ask: For the compound shown here, CCS(=O)(=O)CCc1c(Cn2c(=O)n(C3CC3)c3ccncc32)nc2cc(Cl)ccn12 , give the reported CLhep predicted at 1 µM.
Result: 62

====

assay: Antiviral activity against Respiratory syncytial virus A infected in human Hep2 cells assessed as reduction of virus-induced cytopathic effect after 6 days by CCK-8 assay; type: functional, cell-based, Respiratory syncytial virus type A; conditions: HEp-2, 144 h
Recorded EC50, one value per entry.
Field: numeric (nM). Do not append units.

O=c1n(Cc2nc3ccc(C(F)(F)F)cn3c2CCCCO)c2cnccc2n1C1CC1 2890
CCCCNc1c(Cn2c(=O)n(C3CC3)c3ccncc32)nc2cc(Cl)ccn12 41
O=c1n(Cc2nc3ccccn3c2CCCCO)c2cnccc2n1C1CC1 17
O=c1n(Cc2nc3ccc(Cl)cn3c2CCCCO)c2cnccc2n1C1CC1 422
N#Cc1c(Cn2c(=O)n(C3CC3)c3ccncc32)nc2cc(Cl)ccn12 86

Ask: For the molecule shown here, CS(=O)(=O)CCc1c(Cn2c(=O)n(C3CC3)c3ccncc32)nc2cc(Cl)ccn12 , give the reported EC50.
Result: 6

Ask: For the molecule shown here, Cc1ccc2nc(Cn3c(=O)n(C4CC4)c4ccncc43)c(CCCCO)n2c1 , give the reported EC50.
Result: 217

Ask: For the molecule shown here, O=C(O)/C=C/c1c(Cn2c(=O)n(C3CC3)c3ccncc32)nc2cc(Cl)ccn12 , give the reported EC50.
Result: 207

Ask: For the molecule shown here, O=C(NCCO)c1c(Cn2c(=O)n(C3CC3)c3ccncc32)nc2cc(Cl)ccn12 , give the reported EC50.
Result: 2230

====

experiment: Clearance in human liver microsomes at 1 uM
measured-metric: CLhep predicted at 1 µM (mL/min/kg)
Field: numeric (mL/min/kg). Do not append units.

Please review the following examples before continuing.
CCS(=O)(=O)CCc1c(Cn2c(=O)n(C3CC3)c3ccncc32)nc2cc(Cl)ccn12 4.6
NC(=O)CCc1c(Cn2c(=O)n(C3CC3)c3ccncc32)nc2cc(Cl)ccn12 13.5

Ask: For the compound shown here, CS(=O)(=O)CCc1c(Cn2c(=O)n(C3CC3)c3ccncc32)nc2cc(Cl)ccn12 , give the reported CLhep predicted at 1 µM.
Result: 2.5

Ask: For the compound shown here, O=c1n(Cc2nc3cc(Cl)ccn3c2CCCCO)c2cnccc2n1C1CC1 , give the reported CLhep predicted at 1 µM.
Result: 11.5

Ask: For the compound shown here, O=C(CCc1c(Cn2c(=O)n(C3CC3)c3ccncc32)nc2cc(Cl)ccn12)NCCO , give the reported CLhep predicted at 1 µM.
Result: 2.9
